Target: T1, IL10Rα/IL2Rγ receptor (human) (UniProt Q13651)
T1 sequence (looked up) 1: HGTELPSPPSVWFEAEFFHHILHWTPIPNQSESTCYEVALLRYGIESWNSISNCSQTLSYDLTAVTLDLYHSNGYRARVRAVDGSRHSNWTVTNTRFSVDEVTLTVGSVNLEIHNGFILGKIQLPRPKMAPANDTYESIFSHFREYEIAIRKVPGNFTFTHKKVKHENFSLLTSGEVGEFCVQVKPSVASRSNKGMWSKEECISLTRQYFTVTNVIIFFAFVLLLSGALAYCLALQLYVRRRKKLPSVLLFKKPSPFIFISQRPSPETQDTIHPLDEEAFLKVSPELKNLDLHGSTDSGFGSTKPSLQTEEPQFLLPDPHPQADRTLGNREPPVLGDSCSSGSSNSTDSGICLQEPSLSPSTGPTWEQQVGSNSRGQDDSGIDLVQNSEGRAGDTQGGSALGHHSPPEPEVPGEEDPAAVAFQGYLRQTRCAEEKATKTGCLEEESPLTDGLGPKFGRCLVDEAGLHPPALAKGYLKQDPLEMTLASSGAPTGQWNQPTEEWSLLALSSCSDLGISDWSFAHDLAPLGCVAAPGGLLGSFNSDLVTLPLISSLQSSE
T1 sequence (looked up) 2: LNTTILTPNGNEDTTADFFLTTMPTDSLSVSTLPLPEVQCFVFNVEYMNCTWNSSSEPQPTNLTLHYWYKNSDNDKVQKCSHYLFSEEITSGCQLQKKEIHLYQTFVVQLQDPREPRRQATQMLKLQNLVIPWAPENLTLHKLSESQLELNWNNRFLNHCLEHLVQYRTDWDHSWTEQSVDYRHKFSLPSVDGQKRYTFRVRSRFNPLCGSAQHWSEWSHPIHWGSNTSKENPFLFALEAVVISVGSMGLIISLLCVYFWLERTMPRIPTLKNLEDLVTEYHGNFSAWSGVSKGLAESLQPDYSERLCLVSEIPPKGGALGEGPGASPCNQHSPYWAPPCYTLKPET
Assay: cell-based or functional assay
# Lookup of reported IL-9 secretion, CD8 T cells, at 100 µM keyed by entry
Give your result in pg/mL as a bare value.

Use these answered entries as a reference point.
>>> data_value("hIL10Ra_VHH14 - hIL2Rg_VHH19, linker …, tag his (bispecific antibody, not shown: small tags and cut ends) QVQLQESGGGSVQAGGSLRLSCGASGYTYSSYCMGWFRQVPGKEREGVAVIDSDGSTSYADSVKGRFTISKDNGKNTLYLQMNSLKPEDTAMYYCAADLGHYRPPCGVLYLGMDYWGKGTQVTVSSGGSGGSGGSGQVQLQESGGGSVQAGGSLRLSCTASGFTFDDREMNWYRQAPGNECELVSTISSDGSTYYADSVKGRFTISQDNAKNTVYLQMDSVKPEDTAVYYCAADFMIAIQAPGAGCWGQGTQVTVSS")
1960
>>> data_value("hIL10Ra_VHH14 - hIL2Rg_VHH19, linker GGGSGGGS, tag his (bispecific antibody, not shown: small tags and cut ends) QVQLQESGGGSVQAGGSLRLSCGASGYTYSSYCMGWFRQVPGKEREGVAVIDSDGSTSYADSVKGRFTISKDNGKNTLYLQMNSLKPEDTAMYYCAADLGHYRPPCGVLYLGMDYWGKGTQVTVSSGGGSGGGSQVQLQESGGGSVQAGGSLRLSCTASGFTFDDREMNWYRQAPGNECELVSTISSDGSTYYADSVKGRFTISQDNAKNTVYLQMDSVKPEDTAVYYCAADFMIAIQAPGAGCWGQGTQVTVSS")
1700

Tell me the measured IL-9 secretion, CD8 T cells, at 100 µM of hIL10Ra_VHH14 - hIL2Rg_VHH19, linker GGGS, tag his (bispecific antibody, not shown: small tags and cut ends) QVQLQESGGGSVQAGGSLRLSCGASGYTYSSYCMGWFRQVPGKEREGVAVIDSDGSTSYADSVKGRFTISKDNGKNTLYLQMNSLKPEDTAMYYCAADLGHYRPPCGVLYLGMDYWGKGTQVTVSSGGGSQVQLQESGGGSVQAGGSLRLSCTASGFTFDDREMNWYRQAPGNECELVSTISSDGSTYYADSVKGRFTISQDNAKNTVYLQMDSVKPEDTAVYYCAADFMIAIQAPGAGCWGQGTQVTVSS , please. 1710

Sample hIL10Ra_VHH14 - hIL2Rg_VHH19, linker GGGS, tag Fc (bispecific antibody, not shown: a dimerising Fc or GST) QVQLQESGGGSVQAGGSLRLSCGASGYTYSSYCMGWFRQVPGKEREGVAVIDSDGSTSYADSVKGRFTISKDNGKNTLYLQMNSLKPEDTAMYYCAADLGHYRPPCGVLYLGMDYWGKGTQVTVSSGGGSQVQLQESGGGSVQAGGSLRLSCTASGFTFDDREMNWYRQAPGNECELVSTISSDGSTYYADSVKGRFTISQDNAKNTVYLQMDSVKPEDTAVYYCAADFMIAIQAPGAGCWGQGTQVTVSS — what was its IL-9 secretion, CD8 T cells, at 100 µM? 1930

Name the recorded IL-9 secretion, CD8 T cells, at 100 µM for hIL10Ra_VHH14 - hIL2Rg_VHH19, linker GS, tag his (bispecific antibody, not shown: small tags and cut ends) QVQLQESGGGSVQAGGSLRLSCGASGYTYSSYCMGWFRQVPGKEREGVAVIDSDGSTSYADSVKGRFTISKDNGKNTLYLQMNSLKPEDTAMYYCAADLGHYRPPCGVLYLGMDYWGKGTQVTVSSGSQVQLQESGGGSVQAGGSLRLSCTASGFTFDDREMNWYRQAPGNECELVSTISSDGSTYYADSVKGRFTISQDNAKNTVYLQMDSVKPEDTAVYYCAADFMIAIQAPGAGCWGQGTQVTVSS . 1880

What does the data say about its IL-9 secretion, CD8 T cells, at 100 µM? Entry: hIL10Ra_VHH14 - hIL2Rg_VHH19, linker GGSGGS, tag his (bispecific antibody, not shown: small tags and cut ends) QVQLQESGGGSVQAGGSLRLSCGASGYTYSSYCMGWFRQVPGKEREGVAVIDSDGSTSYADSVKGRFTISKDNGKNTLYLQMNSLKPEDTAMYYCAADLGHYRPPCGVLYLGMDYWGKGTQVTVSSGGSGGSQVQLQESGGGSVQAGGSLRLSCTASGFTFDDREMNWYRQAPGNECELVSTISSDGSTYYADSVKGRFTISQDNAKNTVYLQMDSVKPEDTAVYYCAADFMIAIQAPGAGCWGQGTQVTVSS 1700

Reference source for all entries: patent US20250163162A1
